system: SK-OV-3 ovarian; assay: NCI-60 one-dose screen, 48 h (100 = growth as untreated, 0 = no growth, -100 = all killed); conditions: 10 µM unless noted
The panel holds about 83,000 compounds, 20% with a hit somewhere; the sample as a whole holds those more often. Calls of active or inactive are those of the source. How the source made its calls: active means growth percent below 10; inactive means the rest.
REPORTED_METRIC: growth

O=C(NCCCNC(=O)OCc1ccc2c(Br)cc(Br)c(O)c2n1)OCc1ccc2c(Br)cc(Br)c(O)c2n1: 20.2% (inactive)

Lookup: What value of measured growth is listed for CC(=O)O.CC(=O)O.O.[Fe] ?
Found: 94.1% (inactive)

Lookup: What value of measured growth is listed for O=S(=O)(/N=c1/n(-c2ccccc2)nc2n1CCN2C1=NCCN1)c1ccc(-c2ccccc2)cc1 ?
Found: 100% (inactive)

---

Tested on: NCI-H460 lung
Experiment: NCI-60 one-dose screen, 48 h
Settings: 10 µM unless noted
Procedure: Growth inhibition of the NCI-H460 human Non-Small Cell Lung tumor cell line is measured as a screen for anti-cancer activity. Cells are grown in 96 well plates and exposed to the test compound for 48 hours. Compounds are tested at a single concentration, which is 10^-5 M for most compounds. The reported endpoint is percent growth (GI% or GIPRCNT), where numbers from 0 - 100% represent growth inhibition, and numbers from -100% - 0 represent cell death. […]
The panel holds about 83,000 compounds, 20% with a hit somewhere; the sample as a whole holds those more often. The source made the active and inactive calls. How the source made its calls: active means growth percent below 10; inactive means the rest.
Could you please pick one outcome from this set? T = active, F = inactive

Worked examples, 5 molecules total:
Cc1cc(C)c(S(=O)(=O)/N=c2/n(-c3ccccc3)nc3n2CCN3C2=NCCN2)c(C)c1: F
CC(C)CCSc1nc(N)nc2nc[nH]c12: F
O=C(O)c1cc([N+](=O)[O-])ccc1Br: F
Nc1ccc2c(c1)Cc1cc(NC(=O)C(F)(F)F)ccc1-2: F
c1cc2ccc3cc2cc1CNCCN1CCNCc2ccc4ccc(cc4c2)CNCCN(CCNC3)CCNCc2ccc3ccc(cc3c2)CNCC1: F

Lookup: Call for entry O=C(Nc1cc(F)cc2cccnc12)c1cnc(N2CCNCC2)cn1 :
Found: F

Lookup: Call for entry CCN(CC)c1ccc2cc(C(Nc3ccc(Br)c(C(F)(F)F)c3)c3nnnn3C(C)(C)C)c(=O)oc2c1 (centres undefined) :
Found: F

Lookup: Call for entry CCN(CC)CCCC(C)Nc1ccnc2cc(Cl)c(SCc3ccccc3)cc12 (centres undefined) :
Found: T

---

tested on: A549/ATCC NSCLC; test: NCI-60 one-dose screen, 48 h (100 = growth as untreated, 0 = no growth, -100 = all killed); conditions: 10 µM unless noted
This is part of a sample that, as a whole, favours compounds with a hit. Of some 83,000 tested, about 20% had one in any assay.
Recorded growth, one value per entry.
Quick reminder: number only, in %, skip the unit.

Reference set (3 entries):
CO[C@H]1CC[C@@]2(C)C(=CC[C@H]3[C@@H]4C[C@H](O)C[C@@]4(C)CC[C@@H]32)C1: 81.9
CCCCN(CCCC)CC(O)c1ccc(OCc2ccccc2)c2ccccc12 (centres undefined): 86.1
Cn1cc(-c2nnc(-c3ccccc3)s2)c2cc(Br)cnc21: 83.1

Lookup: What value of measured growth is listed for Cc1cccc(C[C@H](NC(=O)Nc2ccc(C)cc2F)C(=O)N[C@@H]2C(=O)N3C[C@H](O)C[C@H]3C(=O)N3CCN(C)C[C@H]3C(=O)N[C@@H](C)C(=O)N3C[C@H](C)C[C@H]3C(=O)O[C@H]2C)c1 ?
Found: 43.5

Lookup: What value of measured growth is listed for Cc1cccc(C[C@H](NC(=O)Nc2ccc(Cl)cc2F)C(=O)N[C@@H]2C(=O)N3C[C@H](O)C[C@H]3C(=O)N3CCN(C)C[C@H]3C(=O)N[C@@H](C)C(=O)N3C[C@H](C)C[C@H]3C(=O)O[C@H]2C)c1 ?
Found: 35.6

Lookup: What value of measured growth is listed for CN(C)c1ccc(N=Nc2ccc3ccccc3c2)cc1 ?
Found: 92

Lookup: What value of measured growth is listed for Cn1cc(-c2nnc(-c3cn(C)c4ncc(Br)cc34)o2)c2ccccc21 ?
Found: 87.4

Lookup: What value of measured growth is listed for O=C1CC(C(F)(F)F)Cc2nc3ccc(Br)cc3cc21 (centres undefined) ?
Found: 91.8

---

Test system: HS 578T breast
Assay: NCI-60 one-dose screen, 48 h (100 = growth as untreated, 0 = no growth, -100 = all killed)
Conditions: 10 µM unless noted
Procedure: Growth inhibition of the HS 578T human tumor cell line is measured as a screen for anti-cancer activity. Cells are grown in 96 well plates and exposed to the test compound for 48 hours. Compounds are tested at a single concentration, which is 10^-5 M for most compounds. The reported endpoint is percent growth (GI% or GIPRCNT), where numbers from 0 - 100% represent growth inhibition, and numbers from -100% - 0 represent cell death. For example, a value of 40 represents 60% growth inhibition. […]
This is part of a sample that, as a whole, favours compounds with a hit. Of some 83,000 tested, about 20% had one in any assay. The source made the active and inactive calls. The calls were made as follows: active = growth percent below 10; inactive = the rest.
REPORTED_METRIC: growth

Reference set (10 entries):
CC1Cc2c(ncnc2-n2cnc3ccccc32)N(C)c2ccccc21 (stereo not given): 36.6% (inactive)
COc1ccc2c3ccnc(C(F)(F)F)c3n(CCCCN)c2c1: 44.9% (inactive)
COc1ccccc1S(=O)Nc1ccccc1 (stereo not given): 82% (inactive)
CC1(C)CC[C@]2(C(N)=O)CC[C@]3(C)C(=CC[C@@H]4[C@@]5(C)C/C(=C/c6ccncc6)C(=O)C(C)(C)[C@@H]5CC[C@]43C)[C@@H]2C1: -22.1% [100 µM] (active)
COc1cc(-c2nc(SCCC(C)C)nc(Nc3ccc(S(N)(=O)=O)cc3)c2C#N)cc(OC)c1OC: 40.5% (inactive)
CC(C)c1ccc(/C=N/N=C(N)N)cc1: 97.8% (inactive)
CCc1ccc(NC(=O)N[C@@H](Cc2cc(F)cc(F)c2)C(=O)N[C@@H]2C(=O)N3C[C@H](O)C[C@H]3C(=O)N3CCOC[C@H]3C(=O)N[C@@H](C)C(=O)N3C[C@H](C)C[C@H]3C(=O)O[C@H]2C)cc1: 41.2% (inactive)
Cc1cc(C)c(-c2cc(O)c(-c3c(C)cc(C)cc3C)cc2O)c(C)c1: 11.9% (inactive)
c1ccc(-c2nnc(-c3c[nH]c4ncccc34)s2)cc1: 97.1% (inactive)
O=C(CCCCCCSc1nc(-c2ccc(Cl)cc2)cc(-c2ccc(Cl)cc2)n1)NO: 69.5% (inactive)

Lookup: What value of measured growth is listed for Cn1cc(-c2noc(C(=O)c3cn(C)c4ncc(Br)cc34)n2)c2ccccc21 ?
Found: 99.7% (inactive)

Lookup: What value of measured growth is listed for C=C(C)[C@@H]1CC[C@]2(C)[C@H](C(=O)C=C3[C@@H]4C[C@](C)(C(=O)N5CCN(C)CC5)CC[C@]4(C)CC[C@]32C)[C@@]1(C)CCC#N ?
Found: -54.8% [100 µM] (active)

---

test system: TK-10 renal; test: NCI-60 one-dose screen, 48 h; conditions: 10 µM unless noted
Compounds without any hit were thinned out: in the full panel of roughly 83,000, 20% have a hit. Calls of active or inactive are those of the source. The calls were made as follows: active = growth percent below 10; inactive = the rest.
Could you please pick one outcome from this set? active, inactive

O=C(O)c1ccccc1C(F)(F)F: inactive
c1cc2ccc3cc2cc1CNCCN1CCNCc2ccc4ccc(cc4c2)CNCCN(CCNC3)CCNCc2ccc3ccc(cc3c2)CNCC1: inactive
COc1cc(OC)c(/C=C/C(=O)c2c(N)cc(OC)cc2OC)c(OC)c1: inactive

Lookup: Call for entry Cc1ccc(S(=O)(=O)Oc2ccc(Br)cc2Br)cc1 :
Found: inactive

Lookup: Call for entry CCOC(=O)c1cc(C#N)n2ncc3ccccc3c12 :
Found: inactive

Lookup: Call for entry Cc1ccc(-c2cc(-c3ccc(C)cc3)nc(NCCNc3ccnc4cc(Cl)ccc34)n2)cc1 :
Found: active

Lookup: Call for entry CCCCCCCCCCCCCCNC(=O)Nc1ccc(Cl)c(Cl)c1 :
Found: inactive

Lookup: Call for entry Cc1ccc(NC(=O)N[C@@H](Cc2cc(F)cc(F)c2)C(=O)N[C@@H]2C(=O)N3CCC[C@H]3C(=O)N3CCCC[C@H]3C(=O)N[C@@H](C)C(=O)N3C[C@H](C)C[C@H]3C(=O)O[C@H]2C)cc1 :
Found: inactive

Lookup: Call for entry C#C[C@]1(O)CC[C@H]2[C@@H]3CC=C4c5nc(Nc6ncccn6)sc5CC[C@]4(C)[C@H]3CC[C@@]21C :
Found: inactive

Lookup: Call for entry Cc1ccc(Oc2c(/C=N/NC(=O)Cn3c(=O)sc4ccccc43)c(C)nn2-c2ccccc2)cc1 :
Found: inactive

---

system: MDA-MB-435 melanoma; assay: NCI-60 one-dose screen, 48 h; conditions: 10 µM unless noted
This is part of a sample that, as a whole, favours compounds with a hit. Of some 83,000 tested, about 20% had one in any assay. Active and inactive are the calls of the source. Rule for the calls: active = growth percent below 10; inactive = the rest.
Could you please pick one outcome from this set? label 1 (active), label 0 (inactive)

Worked examples, 6 compounds total:
O=C1CN(Cc2ccc(C(=O)NO)cc2)C(=O)[C@@H](Cc2ccccc2)N1: label 0
CCN(CCNc1ccc(C)c2sc3cc(Cl)ccc3c(=O)c12)CC(C)O (stereo unspecified): label 1
CCCCCC1CCCCN1C(=O)OCCCC (stereo unspecified): label 0
CCCCOC(=O)c1c(C)[nH]c(/C=C2\N=C(c3ccc[nH]3)C=C2OC)c1C: label 1
CC(C)C1=NOC(=O)C1=Cc1cn(-c2ccco2)nc1-c1ccccc1: label 0
C=C(C)[C@@H]1CC[C@]2(C(N)=O)CC[C@]3(C)[C@H](CC[C@@H]4[C@@]5(C)CC[C@H](O)C(C)(C)[C@@H]5CC[C@]43C)[C@@H]12: label 1

Lookup: Call for entry COc1ccc(C=C2c3ccccc3-c3ccccc32)cc1 :
Found: label 1

Lookup: Call for entry CC(C)[N+](C)(C)CC(O)COc1cccc2ccccc12 (stereo unspecified) :
Found: label 0

Lookup: Call for entry CC(C)CCNCC(C)(C)O :
Found: label 0

Lookup: Call for entry Cc1cc[n+](CCCCCCCCCC[n+]2ccc(C)cc2)cc1 :
Found: label 0

Lookup: Call for entry O=[N+]([O-])c1cc(CCl)ccc1OCCBr :
Found: label 0
